Assay: Half life in Sprague-Dawley rat at 1 mg/kg, iv measured upto 24 hrs
Assay type: ADME, organism-based
Conditions: in vivo
value_kind: half-life (h)
Numbers only, in h.

Asked: Could you please provide reported half-life for `Cc1cc2c(-c3ccc(NC(=O)[C@H](N)CC(C)(C)C)cc3C)ccnc2[nH]1` ? Thanks!
Given back: 4.3

----------
Assay: Cmax in CD-1 disease model mouse brain at 30 mg/kg, po measured after 24 hrs
Format: ADME, organism-based
Conditions: CD-1, mouse
value_kind: Cmax (nM)
Give bare numbers, in nM.

Asked: Given `Cc1cc2c(-c3ccc(NC(=O)[C@H](N)CC(C)(C)C)cc3C)ccnc2[nH]1` , respond with its Cmax.
Given back: 1020

----------
Assay: AUC in CD-1 disease model mouse plasma at 30 mg/kg, po measured after 24 hrs
Type: ADME, organism-based
Settings: CD-1, mouse
value_kind: AUC at 24 h (µM·h)
Give bare numbers, in µM·h.

Asked: Give AUC at 24 h for `Cc1cc2c(-c3ccc(NC(=O)[C@H](N)CC(C)(C)C)cc3C)ccnc2[nH]1`
Given back: 90.5

----------
Experiment: Plasma clearance in Sprague-Dawley rat at 1 mg/kg, iv measured upto 24 hrs
Type: ADME, organism-based
value_kind: clearance (mL/min/kg)
Numbers only, in mL/min/kg.

Asked: Fill in clearance for record `Cc1cc2c(-c3ccc(NC(=O)[C@H](N)CC(C)(C)C)cc3C)ccnc2[nH]1`
Given back: 4.4

----------
Target: UniProt:P11712
Sequence (P11712 whole entry): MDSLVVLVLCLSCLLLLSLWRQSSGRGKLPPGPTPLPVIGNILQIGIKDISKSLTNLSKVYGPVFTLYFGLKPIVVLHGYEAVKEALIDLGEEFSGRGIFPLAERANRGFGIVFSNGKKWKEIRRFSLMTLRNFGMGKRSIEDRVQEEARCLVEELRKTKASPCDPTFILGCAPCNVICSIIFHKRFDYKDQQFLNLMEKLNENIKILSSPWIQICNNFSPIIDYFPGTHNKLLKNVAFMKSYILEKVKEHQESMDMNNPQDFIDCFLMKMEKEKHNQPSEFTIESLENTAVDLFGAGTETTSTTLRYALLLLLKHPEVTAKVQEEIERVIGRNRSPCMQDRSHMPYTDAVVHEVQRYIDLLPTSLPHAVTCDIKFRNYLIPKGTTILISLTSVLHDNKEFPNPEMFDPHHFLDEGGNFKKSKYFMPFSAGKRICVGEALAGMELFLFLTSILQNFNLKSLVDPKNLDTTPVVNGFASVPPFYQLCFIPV
Assay: Inhibition of CYP2C9 (unknown origin) at 10 uM by LC/MS/MS analysis relative to control
Format: ADME
value_kind: inhibition at 10 µM (%)
Give bare numbers, in %.

Asked: # return recorded inhibition at 10 µM for entry `Cc1cc2c(-c3ccc(NC(=O)[C@H](N)CC(C)(C)C)cc3C)ccnc2[nH]1`
Given back: 6.7

----------
Test: Apparent permeability across apical to basolateral side in dog MDCK cells incubated for 1 hr by LCMS analysis
Format: ADME, cell-based, Canis lupus familiaris
value_kind: Papp A→B at 1 h (×10⁻⁶ cm/s)
Numbers only, in ×10⁻⁶ cm/s.

Asked: Consider the compound `Cc1cc2c(-c3ccc(NC(=O)[C@H](N)CC(C)(C)C)cc3C)ccnc2[nH]1` . State its measured Papp A→B at 1 h.
Given back: 21.3

----------
Molecular target: CYP2D6 (Homo sapiens)
Sequence (P10635 whole entry): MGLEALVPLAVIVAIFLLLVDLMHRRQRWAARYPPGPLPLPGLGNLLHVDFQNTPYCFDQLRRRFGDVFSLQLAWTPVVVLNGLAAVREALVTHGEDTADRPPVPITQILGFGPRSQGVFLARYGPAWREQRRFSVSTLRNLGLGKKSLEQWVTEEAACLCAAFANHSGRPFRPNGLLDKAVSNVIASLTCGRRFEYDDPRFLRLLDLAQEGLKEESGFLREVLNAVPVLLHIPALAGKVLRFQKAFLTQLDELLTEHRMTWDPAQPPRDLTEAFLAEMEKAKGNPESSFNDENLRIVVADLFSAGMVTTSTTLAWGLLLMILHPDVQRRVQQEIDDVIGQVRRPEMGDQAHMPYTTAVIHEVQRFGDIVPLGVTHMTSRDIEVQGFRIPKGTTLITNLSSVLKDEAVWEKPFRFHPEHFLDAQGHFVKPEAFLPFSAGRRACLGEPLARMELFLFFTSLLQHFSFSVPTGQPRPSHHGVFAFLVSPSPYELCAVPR
Experiment: Inhibition of CYP2D6 (unknown origin) at 10 uM by LC/MS/MS analysis relative to control
Format: ADME
value_kind: inhibition at 10 µM

Asked: Please supply the value of reported inhibition at 10 µM for the item `Cc1cc2c(-c3ccc(NC(=O)[C@H](N)CC(C)(C)C)cc3C)ccnc2[nH]1`
Given back: 56.2%

----------
Assay: AUC in CD-1 disease model mouse brain at 30 mg/kg, po measured after 24 hrs
Format: ADME, organism-based
Conditions: CD-1, mouse
value_kind: AUC at 24 h

Asked: Please look at this molecule and report its AUC at 24 h: `Cc1cc2c(-c3ccc(NC(=O)[C@H](N)CC(C)(C)C)cc3C)ccnc2[nH]1`
Given back: 7.71 µM·h

----------
Citron Rho-interacting kinase (Homo sapiens) data, read-out IC50
Sequence (O14578 whole entry): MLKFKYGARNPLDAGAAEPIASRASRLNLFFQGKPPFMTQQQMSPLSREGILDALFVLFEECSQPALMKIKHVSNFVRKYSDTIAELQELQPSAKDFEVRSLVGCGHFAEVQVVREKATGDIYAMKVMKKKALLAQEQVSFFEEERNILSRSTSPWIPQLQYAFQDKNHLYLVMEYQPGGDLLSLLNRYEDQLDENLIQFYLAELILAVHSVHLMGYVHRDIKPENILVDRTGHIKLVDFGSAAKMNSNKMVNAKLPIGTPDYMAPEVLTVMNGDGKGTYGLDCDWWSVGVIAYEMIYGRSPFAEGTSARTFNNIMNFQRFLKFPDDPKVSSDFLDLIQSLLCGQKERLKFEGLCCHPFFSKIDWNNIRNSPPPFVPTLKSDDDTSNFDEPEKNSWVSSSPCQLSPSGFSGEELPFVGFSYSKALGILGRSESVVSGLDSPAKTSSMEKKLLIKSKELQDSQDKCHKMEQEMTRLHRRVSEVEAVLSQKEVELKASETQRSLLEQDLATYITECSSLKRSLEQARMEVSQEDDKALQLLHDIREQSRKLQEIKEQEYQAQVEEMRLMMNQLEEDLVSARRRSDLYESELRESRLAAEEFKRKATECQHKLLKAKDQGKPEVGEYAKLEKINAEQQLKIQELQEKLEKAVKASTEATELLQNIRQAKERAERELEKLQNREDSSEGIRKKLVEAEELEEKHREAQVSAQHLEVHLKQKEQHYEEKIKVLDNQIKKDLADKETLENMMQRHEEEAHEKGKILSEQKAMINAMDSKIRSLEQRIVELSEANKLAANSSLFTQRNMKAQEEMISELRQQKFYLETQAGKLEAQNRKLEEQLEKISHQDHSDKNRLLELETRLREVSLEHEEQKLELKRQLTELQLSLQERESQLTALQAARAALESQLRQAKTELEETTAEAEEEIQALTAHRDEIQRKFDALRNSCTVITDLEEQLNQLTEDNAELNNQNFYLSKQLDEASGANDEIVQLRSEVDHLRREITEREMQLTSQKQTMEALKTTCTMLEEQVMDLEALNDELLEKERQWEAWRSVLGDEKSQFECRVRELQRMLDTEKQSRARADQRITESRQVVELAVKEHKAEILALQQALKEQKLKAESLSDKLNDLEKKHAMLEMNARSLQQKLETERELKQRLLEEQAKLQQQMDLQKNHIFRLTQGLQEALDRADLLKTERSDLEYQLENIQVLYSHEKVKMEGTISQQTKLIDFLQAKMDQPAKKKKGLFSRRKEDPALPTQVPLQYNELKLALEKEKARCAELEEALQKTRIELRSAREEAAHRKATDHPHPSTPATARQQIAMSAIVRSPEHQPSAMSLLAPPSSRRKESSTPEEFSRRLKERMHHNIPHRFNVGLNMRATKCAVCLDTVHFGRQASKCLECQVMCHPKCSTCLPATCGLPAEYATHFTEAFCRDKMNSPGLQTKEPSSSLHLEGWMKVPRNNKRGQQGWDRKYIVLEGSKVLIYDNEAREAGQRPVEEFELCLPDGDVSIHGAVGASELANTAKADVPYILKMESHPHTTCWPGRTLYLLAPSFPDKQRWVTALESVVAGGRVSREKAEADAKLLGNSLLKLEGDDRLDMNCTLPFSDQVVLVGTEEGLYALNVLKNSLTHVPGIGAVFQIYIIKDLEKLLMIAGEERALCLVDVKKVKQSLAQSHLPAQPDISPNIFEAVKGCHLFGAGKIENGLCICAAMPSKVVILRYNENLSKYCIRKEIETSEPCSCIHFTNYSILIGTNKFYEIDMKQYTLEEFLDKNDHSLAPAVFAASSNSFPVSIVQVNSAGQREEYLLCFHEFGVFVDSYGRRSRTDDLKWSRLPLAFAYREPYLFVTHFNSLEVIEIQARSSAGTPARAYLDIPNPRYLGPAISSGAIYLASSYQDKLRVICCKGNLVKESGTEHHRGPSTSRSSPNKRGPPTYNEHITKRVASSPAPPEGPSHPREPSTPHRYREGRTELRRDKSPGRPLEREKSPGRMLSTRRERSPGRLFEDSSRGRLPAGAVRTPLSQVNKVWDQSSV
One number for each entry, in nM.

Cc1cc2c(-c3ccc(NC(=O)[C@@H](N)[C@H](O)C(C)C)cc3C)ccnc2[nH]1	16
CC(C)CC(CN)C(=O)Nc1ccc(-c2ccnc3[nH]ccc23)cc1 (centres undefined)	410
CC(C)C[C@H](N)C(=O)Nc1ccc(-c2ccnc3[nH]ccc23)cc1	42

From here, focus on the item given below.
Asked: Fill in reported IC50 for this entry: CC(N)C(=O)Nc1ccc(-c2ccnc3[nH]ccc23)cc1 (centres undefined)
Given back: 250
